# protocolSummary: in vivo pharmacokinetic study
# Set-up: species or system rats
# setupConditions: male, Sprague-Dawley, rat, plasma, po; Rats, P.O. 10mg/kg

{"columns": ["structureSmilesString", "Tmax / h"],
 "data": [
  ["C=CC(=O)Nc1cc(Nc2cc(-c3cccc(NC(=O)c4cc5c(s4)CCCC5)c3C)cn(C)c2=O)ccc1N1CCN(CC)CC1", 6]
]}

* * *

# assayedSystem: TXK (Homo sapiens)
# Sequence (P42681 whole entry): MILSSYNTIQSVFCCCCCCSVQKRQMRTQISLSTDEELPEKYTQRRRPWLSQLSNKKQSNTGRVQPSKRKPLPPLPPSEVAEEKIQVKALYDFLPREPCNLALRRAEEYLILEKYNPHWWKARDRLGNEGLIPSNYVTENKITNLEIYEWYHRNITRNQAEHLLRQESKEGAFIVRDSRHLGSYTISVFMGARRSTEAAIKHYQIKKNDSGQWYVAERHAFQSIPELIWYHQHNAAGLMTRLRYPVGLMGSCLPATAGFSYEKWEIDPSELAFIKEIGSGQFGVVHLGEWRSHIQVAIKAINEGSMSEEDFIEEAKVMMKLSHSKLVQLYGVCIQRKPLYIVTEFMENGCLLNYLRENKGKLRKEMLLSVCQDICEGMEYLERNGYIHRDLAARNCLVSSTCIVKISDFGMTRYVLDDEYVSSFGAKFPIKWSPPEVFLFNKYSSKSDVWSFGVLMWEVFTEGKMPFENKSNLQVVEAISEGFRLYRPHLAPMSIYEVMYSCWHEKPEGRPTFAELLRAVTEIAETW

{"columns": ["compound", "IC50"],
 "data": [
  ["C=CC(=O)Nc1cc(Nc2cc(-c3cccc(NC(=O)c4cc5c(s4)CCCC5)c3C)cn(C)c2=O)ccc1N1CCN(CC)CC1 [CHMFL-BTK-85]", "3.31 µM"]
]}

Where do these numbers come from? They come from paper PMC7490411.
